This collection of values is drawn from ChEMBL document CHEMBL1136470.

// values below are pKi; system is Matrix metalloproteinase-9 (Homo sapiens, UniProt P14780)
Sequence (P14780 whole entry): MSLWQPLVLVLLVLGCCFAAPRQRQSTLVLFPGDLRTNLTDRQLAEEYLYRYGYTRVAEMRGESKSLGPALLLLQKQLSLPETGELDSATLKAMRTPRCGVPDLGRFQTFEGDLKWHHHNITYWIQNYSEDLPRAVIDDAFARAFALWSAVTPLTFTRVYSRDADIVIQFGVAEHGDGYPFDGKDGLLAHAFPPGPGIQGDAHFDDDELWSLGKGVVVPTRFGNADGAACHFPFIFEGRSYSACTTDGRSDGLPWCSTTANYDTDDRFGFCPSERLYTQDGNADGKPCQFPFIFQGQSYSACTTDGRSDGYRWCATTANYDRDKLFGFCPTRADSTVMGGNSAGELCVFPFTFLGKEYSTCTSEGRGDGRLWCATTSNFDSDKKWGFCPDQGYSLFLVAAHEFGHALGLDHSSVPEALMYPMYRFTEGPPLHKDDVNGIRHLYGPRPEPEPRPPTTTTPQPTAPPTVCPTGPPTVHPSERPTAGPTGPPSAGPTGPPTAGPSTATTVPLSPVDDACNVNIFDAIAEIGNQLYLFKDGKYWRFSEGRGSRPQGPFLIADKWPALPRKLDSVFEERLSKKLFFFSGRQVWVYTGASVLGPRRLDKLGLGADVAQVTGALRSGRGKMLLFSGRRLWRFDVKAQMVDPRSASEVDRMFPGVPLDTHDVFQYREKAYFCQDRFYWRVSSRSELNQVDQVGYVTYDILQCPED
pKi: −log10 of the molar value.

Worked cases, answers included:
* O=C(NO)[C@H]1CCC[C@@H]1C(=O)Nc1ccc(OCc2ccccc2)cc1 | < 5.67
* O=C(NO)[C@H]1CCCC[C@@H]1C(=O)Nc1ccc(COc2ccnc3ccccc23)cc1 | < 5.67
* O=C(NO)[C@H]1CCC[C@@H]1C(=O)Nc1ccc(OCc2ccncc2)cc1 | < 5.67
* O=C(NO)[C@H]1CCC[C@@H]1C(=O)Nc1ccc(COc2ccnc3ccccc23)cc1 | < 5.67
* O=C(NO)[C@H]1CCC[C@@H]1C(=O)Nc1ccc(Cc2ccncc2)cc1 | < 5.67

Would you mind listing pKi for each of the following molecules?
1. O=C1NCCCC[C@@H](C(=O)NCC(=O)N2CCOCC2)NC(=O)[C@H](Cc2ccc(-c3ccccc3C(F)(F)F)cc2)[C@@H](C(=O)NO)CCCO1
2. O=C(NO)[C@H]1CCCC[C@@H]1C(=O)Nc1ccc(COc2cccc3ncccc23)cc1
3. O=C(NO)[C@H]1CCCC[C@@H]1C(=O)Nc1ccc(OCc2ccccc2)cc1

1: < 5.70; 2: 5.87; 3: < 5.67

Would you mind listing pKi for each of the following molecules?
1. O=C(NO)[C@H]1CCCC[C@@H]1C(=O)Nc1ccc(COc2ccc3ncccc3c2)cc1
2. O=C(NO)[C@H]1CCC[C@@H]1C(=O)Nc1ccc(OCc2cc(Cl)cc(Cl)c2)cc1

1: 6.06; 2: < 5.67

###

target: Disintegrin and metalloproteinase domain-containing protein 17 (Sus scrofa, UniProt O77636)
Sequence (O77636 whole entry, the tested form may be a part): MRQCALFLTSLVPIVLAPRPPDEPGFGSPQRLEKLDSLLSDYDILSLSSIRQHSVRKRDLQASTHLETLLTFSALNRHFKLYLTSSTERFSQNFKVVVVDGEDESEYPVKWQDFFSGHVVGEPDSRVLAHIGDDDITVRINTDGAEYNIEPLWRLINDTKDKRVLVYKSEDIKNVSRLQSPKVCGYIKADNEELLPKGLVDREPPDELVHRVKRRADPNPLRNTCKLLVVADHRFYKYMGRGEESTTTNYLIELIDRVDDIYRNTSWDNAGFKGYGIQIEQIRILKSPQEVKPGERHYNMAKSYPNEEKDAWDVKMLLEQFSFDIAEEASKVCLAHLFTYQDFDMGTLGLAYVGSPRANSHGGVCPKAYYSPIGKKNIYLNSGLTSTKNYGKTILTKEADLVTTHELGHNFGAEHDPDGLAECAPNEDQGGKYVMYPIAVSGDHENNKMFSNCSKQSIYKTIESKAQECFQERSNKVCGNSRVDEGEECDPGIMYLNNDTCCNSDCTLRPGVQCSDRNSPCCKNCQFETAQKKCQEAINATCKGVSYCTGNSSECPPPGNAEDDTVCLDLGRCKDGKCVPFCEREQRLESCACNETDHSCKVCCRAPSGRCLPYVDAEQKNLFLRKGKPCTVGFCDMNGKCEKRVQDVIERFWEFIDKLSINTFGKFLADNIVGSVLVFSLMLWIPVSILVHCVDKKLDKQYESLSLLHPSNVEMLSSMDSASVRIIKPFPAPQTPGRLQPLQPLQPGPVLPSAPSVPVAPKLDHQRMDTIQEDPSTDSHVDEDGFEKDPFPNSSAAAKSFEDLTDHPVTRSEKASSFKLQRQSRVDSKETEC
Please respond with reported log10 IC50 for every item in the list.
log10 IC50, µM

Worked cases, answers included:
- O=C(NO)[C@H]1CCC[C@@H]1C(=O)Nc1ccc(COc2ccnc3ccccc23)cc1: -1.41
- O=C(NO)[C@H]1CCCC[C@@H]1C(=O)Nc1ccc(C#Cc2ccc3ncccc3c2)cc1: 0.86
- O=C(NO)[C@H]1CCCC[C@@H]1C(=O)Nc1ccc(COc2ccc3ncccc3c2)cc1: -1.25

Would you mind listing log10 IC50 for each of the following compounds?
1. O=C(NO)[C@H]1CCC[C@@H]1C(=O)Nc1ccc(OCc2ccccc2)cc1
2. O=C(NO)[C@H]1CCCC[C@@H]1C(=O)Nc1ccc(COc2ccnc3ccccc23)cc1
3. O=C(NO)[C@H]1CCC[C@@H]1C(=O)Nc1ccc(OCc2ccncc2)cc1
4. O=C(NO)[C@H]1CCCC[C@@H]1C(=O)Nc1ccc(OCc2ccccc2)cc1
5. O=C(NO)[C@H]1CCCC[C@@H]1C(=O)Nc1ccc(COc2cccc3ncccc23)cc1
6. O=C(NO)[C@H]1CCC[C@@H]1C(=O)Nc1ccc(Cc2ccncc2)cc1

[-0.96, -2.10, -0.21, -1.05, -1.35, -0.68]

Documented log10 IC50 of O=C(NO)[C@H]1CCC[C@@H]1C(=O)Nc1ccc(OCc2cc(Cl)cc(Cl)c2)cc1 : -1.28

###

// values below are Ki; system is UniProt P08253
Sequence (P08253 whole entry): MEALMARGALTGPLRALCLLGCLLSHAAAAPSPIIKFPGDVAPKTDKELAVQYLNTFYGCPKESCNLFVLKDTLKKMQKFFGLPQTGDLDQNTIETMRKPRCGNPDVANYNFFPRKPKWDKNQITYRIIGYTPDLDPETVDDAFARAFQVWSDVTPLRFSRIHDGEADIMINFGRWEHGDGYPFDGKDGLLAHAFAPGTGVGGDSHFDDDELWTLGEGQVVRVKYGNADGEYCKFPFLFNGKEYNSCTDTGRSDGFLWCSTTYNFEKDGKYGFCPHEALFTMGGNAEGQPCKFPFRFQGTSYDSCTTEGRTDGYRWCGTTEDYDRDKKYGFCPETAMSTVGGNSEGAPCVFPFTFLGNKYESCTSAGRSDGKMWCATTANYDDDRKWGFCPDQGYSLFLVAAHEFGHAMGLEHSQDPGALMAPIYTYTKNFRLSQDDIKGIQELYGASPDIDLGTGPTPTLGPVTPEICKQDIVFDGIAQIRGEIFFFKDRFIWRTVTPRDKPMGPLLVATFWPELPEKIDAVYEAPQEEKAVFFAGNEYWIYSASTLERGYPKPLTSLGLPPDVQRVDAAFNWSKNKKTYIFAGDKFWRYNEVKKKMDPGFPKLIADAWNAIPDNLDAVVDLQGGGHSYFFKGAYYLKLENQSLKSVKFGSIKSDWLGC

Worked cases, answers included:
• O=C(NO)[C@H]1CCC[C@@H]1C(=O)Nc1ccc(OCc2ccccc2)cc1 = > 3.33 µM
• O=C(NO)[C@H]1CCC[C@@H]1C(=O)Nc1ccc(OCc2ccncc2)cc1 = > 3.33 µM
• O=C(NO)[C@H]1CCCC[C@@H]1C(=O)Nc1ccc(COc2ccc3ncccc3c2)cc1 = 1.08 µM

Would you mind listing Ki for each of the following molecules?
1. O=C(NO)[C@H]1CCC[C@@H]1C(=O)Nc1ccc(OCc2cc(Cl)cc(Cl)c2)cc1
2. O=C(NO)[C@H]1CCC[C@@H]1C(=O)Nc1ccc(Cc2ccncc2)cc1
3. O=C(NO)[C@H]1CCCC[C@@H]1C(=O)Nc1ccc(COc2cccc3ncccc23)cc1
4. O=C(NO)[C@H]1CCCC[C@@H]1C(=O)Nc1ccc(COc2ccnc3ccccc23)cc1
5. O=C(NO)[C@H]1CCCC[C@@H]1C(=O)Nc1ccc(OCc2ccccc2)cc1

> 3.33 µM
0.675 µM
0.585 µM
> 3.33 µM
> 3.33 µM
